# Tested on: WaGa
# protocol-notes: qHTS assay to identify novel small-molecules to repurpose for Merkel cell carcinoma treatment (AID 1296009); further: nearly all actives have a fitted effect of over 60% in size
# test-parameters: MCC and control cell lines, CellTiter-Glo viability, 72 h; series mostly up to 46 µM
# From the text: MCC is a rare and aggressive neuroendocrine skin cancer with limited treatment options. Approximately 80% of MCCs have the Merkel cell polyomavirus (MCPyV) DNA integrated into the host genome (virus-positive: VP-MCC) and viral oncogenes drive oncogenesis. The remaining MCCs are virus-negative (VN-MCC) and are caused by UV mutagenesis. […] Using cell viability as a readout (CellTiter-Glo assay) we found both overlapping and distinct drugs that can be repurposed for the treatment of VP-MCC and VN-MCC. […]
Results filed as inconclusive are left out. Activity calls are given as the source filed them. The call rests on the fitted dose curve; in most records, active means well fitted inhibition curve with a large enough effect; inconclusive means small, poorly fitted or top-dose-only effect; inactive means flat fitted curve, though single readings scatter.
Pick one: active, inactive

Inquiry: Per the records of this test, what outcome belongs to C#C[C@]1(O)CC[C@H]2[C@@H]3CCc4cc(OC)ccc4[C@H]3CC[C@@]21C ?
Reply text: inactive

Inquiry: Per the records of this test, what outcome belongs to CC(=O)NO ?
Reply text: inactive

From here, focus on the item given below.
Inquiry: Per the records of this test, what outcome belongs to CCCCCCCCCCCCCC(=O)OC(C)C ?
Reply text: inactive
